# testProtocol: Rat hepatocyte intrinsic clearance
# Format: in vitro ADME
# conditionInfo: rat, rat hepatocytes
Mark Fulfilled only for hepatocyte CLint values smaller than 100 µL/min/1e6 cells; exact matches and larger values are Not fulfilled.

See these solved cases before continuing.
c1ccc(-c2cn3ccccc3n2)nc1 [Compound 11a, 2-(Pyridin-2-yl)imidazo[1,2-a]pyridine] ... Not fulfilled
Fc1ccc(Nc2c(-c3ccccn3)nc3ccccn23)cc1 ... Not fulfilled
COc1ccn2c(N)c(-c3ccccn3)nc2c1 ... Fulfilled
CSc1ccc2nc(-c3ccccn3)c(Nc3ccc(F)cc3)n2c1 ... Not fulfilled

Prompt line: Quick check: does `COc1cccn2c(Nc3ccc(F)cc3)c(-c3ccccn3)nc12` have hepatocyte CLint under 100 µL/min/1e6 cells?
Response line: Fulfilled

Prompt line: Quick check: does `Fc1ccc(Nc2c(-c3ccccn3)nc3cnccn23)cc1` have hepatocyte CLint under 100 µL/min/1e6 cells?
Response line: Fulfilled

Prompt line: Quick check: does `CS(=O)(=O)c1ccc2nc(-c3ccccn3)c(Nc3ccc(F)cc3)n2c1` have hepatocyte CLint under 100 µL/min/1e6 cells?
Response line: Not fulfilled

Prompt line: Quick check: does `Fc1ccc(Nc2c(-c3ccccn3)nc3sccn23)cc1` have hepatocyte CLint under 100 µL/min/1e6 cells?
Response line: Not fulfilled
